Target: ATP-binding cassette transporter A1 (ABCA1) (UniProt P41233 1-2261, limits assumed); note: test concentration or dose not given here
Sequence (P41233 whole entry): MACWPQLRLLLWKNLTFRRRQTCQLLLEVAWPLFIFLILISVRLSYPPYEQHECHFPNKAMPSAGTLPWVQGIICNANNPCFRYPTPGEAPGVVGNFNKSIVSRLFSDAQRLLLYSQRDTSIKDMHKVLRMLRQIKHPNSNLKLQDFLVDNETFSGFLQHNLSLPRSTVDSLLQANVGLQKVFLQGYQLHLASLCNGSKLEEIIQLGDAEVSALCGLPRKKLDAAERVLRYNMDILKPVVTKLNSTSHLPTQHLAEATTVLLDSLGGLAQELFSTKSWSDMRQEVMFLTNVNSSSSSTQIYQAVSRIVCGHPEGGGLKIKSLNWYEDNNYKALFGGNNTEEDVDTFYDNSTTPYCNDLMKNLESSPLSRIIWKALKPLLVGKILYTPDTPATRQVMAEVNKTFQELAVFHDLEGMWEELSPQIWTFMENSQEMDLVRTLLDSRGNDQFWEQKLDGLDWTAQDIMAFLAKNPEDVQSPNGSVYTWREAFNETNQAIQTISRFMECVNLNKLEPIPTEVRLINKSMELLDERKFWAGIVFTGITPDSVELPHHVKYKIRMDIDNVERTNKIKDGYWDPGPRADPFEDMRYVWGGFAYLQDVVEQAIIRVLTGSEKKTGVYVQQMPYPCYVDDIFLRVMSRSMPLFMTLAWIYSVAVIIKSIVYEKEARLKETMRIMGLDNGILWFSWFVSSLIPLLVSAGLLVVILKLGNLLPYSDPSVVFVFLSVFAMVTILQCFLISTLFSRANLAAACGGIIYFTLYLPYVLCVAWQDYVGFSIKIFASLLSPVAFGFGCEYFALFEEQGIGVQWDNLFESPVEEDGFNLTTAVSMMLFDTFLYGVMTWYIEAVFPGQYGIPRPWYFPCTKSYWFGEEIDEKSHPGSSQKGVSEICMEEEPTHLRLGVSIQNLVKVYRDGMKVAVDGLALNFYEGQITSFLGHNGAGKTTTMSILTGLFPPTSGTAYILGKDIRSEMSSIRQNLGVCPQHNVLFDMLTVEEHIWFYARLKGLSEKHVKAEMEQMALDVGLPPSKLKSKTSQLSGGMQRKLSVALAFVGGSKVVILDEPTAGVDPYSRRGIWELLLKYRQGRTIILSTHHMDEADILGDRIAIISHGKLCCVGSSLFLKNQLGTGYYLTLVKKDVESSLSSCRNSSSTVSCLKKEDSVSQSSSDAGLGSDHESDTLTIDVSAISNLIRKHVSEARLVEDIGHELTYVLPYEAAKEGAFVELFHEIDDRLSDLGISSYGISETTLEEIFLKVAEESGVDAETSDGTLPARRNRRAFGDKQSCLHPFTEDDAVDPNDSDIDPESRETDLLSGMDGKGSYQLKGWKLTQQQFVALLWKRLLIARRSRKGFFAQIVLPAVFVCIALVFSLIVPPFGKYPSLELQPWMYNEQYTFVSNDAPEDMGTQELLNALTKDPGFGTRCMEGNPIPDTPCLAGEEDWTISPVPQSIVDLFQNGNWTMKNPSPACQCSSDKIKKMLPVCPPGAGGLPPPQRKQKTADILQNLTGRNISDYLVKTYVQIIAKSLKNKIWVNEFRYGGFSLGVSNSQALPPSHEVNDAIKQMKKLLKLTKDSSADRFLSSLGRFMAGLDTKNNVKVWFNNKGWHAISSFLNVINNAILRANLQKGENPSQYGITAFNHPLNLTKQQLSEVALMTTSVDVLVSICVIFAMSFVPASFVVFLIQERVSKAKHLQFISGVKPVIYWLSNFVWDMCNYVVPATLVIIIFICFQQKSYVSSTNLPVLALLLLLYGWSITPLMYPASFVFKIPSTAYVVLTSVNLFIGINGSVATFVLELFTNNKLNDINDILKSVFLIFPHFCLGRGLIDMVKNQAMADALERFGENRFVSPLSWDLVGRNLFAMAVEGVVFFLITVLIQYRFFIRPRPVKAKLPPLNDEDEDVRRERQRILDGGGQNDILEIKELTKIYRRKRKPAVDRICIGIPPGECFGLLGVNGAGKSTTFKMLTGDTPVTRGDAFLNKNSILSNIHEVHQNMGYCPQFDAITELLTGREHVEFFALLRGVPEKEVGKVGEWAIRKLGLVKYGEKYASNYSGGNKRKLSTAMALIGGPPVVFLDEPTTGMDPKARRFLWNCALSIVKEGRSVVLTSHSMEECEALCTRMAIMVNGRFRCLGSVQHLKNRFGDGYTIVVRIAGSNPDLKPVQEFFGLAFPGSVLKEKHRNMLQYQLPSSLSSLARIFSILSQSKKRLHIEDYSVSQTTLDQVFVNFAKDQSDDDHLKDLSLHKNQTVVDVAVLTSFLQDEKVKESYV
Assay: cell-based or functional assay
Measurement type: % cholesterol efflux/8 hours, No cAMP (%)

Examples with their reported % cholesterol efflux/8 hours, No cAMP follow.
| Binder | % cholesterol efflux/8 hours, No cAMP (%) |
| --- | --- |
| ELREKLEAWFELFAEFFARF [N356-6] | 2.09 |
| ELREKLEAWRELFEEFFARFKS [N356-2] | 1.27 |

A = ELREKLEAWFELFEEFFARFKS [N356-3]
B = ELREKLEAWFELFAEFFARFKS [N356-4]
C = ELRAKLEAWFEAFAEFFARF [N356-7]
Incoming: Order the records, beginning with the lowest % cholesterol efflux/8 hours, No cAMP and ending with the highest. Give the labels in the order requested.
Outgoing: A, B, C

I = ELREKLEAWFEAFEEFFARFKS [N356-1]
II = ELREKLEAWFELFAEFFARFK [N356-5]
Incoming: Which shows the larger % cholesterol efflux/8 hours, No cAMP value: I or II ? Refer to your chosen item by its label in the answer.
Outgoing: II
(II: 2.18%, I: 0.86%)
